# log10 Ki values compiled below
- study.system: hMOR (Homo sapiens)
- experiment.summary: Receptor binding with [3H]diprenorphine at hMOR
- conditions: PZM analogs; (n) = number of independent experiments; read-out: binding affinity Ki hMOR
Base-10 log of Ki, unit nM.

Query string: Query the reported log10 Ki for hMOR (Homo sapiens); item: `Cc1cc(O)cc(C)c1C[C@@H](CNC(=O)NCCN1C(=O)C=CC1=O)N(C)C`
Result string: 1.26

Query string: How about C[C@H](Cc1ccccc1)NC(=O)NC[C@H](Cc1ccc(O)cc1)N(C)C [drawing 516] ?
Result string: 1.91

Query string: How about `CN(C)[C@@H](CNC(=O)NC(C)(C)Cc1ccccc1)Cc1ccccc1` ?
Result string: 2.81

Query string: How about CN(C)[C@H](CNC(=O)NCCc1ccccc1)Cc1ccc(O)cc1 [drawing 514] ?
Result string: 1.67

Query string: How about CN(C)[C@H](CNC(=O)NC1Cc2ccccc2C1)Cc1ccc(O)cc1 [drawing 526] ?
Result string: 0.89

Query string: How about `CN(C)[C@H](CNC(=O)NCCN1C(=O)C=CC1=O)Cc1ccc(O)cc1` ?
Result string: 2.38

----------
- study.system: μOR (Homo sapiens, UniProt P35372)
- Sequence (P35372 whole entry): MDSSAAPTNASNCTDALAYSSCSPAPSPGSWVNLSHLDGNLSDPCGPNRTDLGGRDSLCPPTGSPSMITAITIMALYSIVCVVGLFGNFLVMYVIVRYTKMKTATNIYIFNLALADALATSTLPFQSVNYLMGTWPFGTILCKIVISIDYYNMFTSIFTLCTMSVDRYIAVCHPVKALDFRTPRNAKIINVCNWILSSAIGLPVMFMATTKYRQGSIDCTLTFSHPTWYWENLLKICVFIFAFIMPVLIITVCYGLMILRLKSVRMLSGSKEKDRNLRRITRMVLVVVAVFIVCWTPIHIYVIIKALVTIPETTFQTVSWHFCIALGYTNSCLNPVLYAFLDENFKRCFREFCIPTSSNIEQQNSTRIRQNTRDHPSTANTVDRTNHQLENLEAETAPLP
- experiment.summary: cell-based
- Format: cell-based
Mark t for Gi/o Emax % DAMGO under 60 % DAMGO, f if at or over.

Example cases with answers are listed next.
[
  {
    "compound": "C[C@@H](Cc1ccsc1)NC(=O)NC[C@H](Cc1ccc(O)c(CO)c1)N(C)C",
    "assigned.label": "t"
  },
  {
    "compound": "CN(C)[C@H](CNC(=S)NCCc1ccsc1)Cc1ccc(O)cc1",
    "assigned.label": "t"
  }
]

Query string: is_below(Gi/o Emax % DAMGO, 60 % DAMGO) for `CN(CCc1ccccc1)C(=O)NC[C@H](Cc1ccc(O)cc1)N(C)C` ?
Result string: f

Query string: How about CN(C)[C@H](CNC(=O)NC(C)(C)Cc1ccsc1)Cc1ccc(O)cc1 [DD 32L] ?
Result string: t

Query string: How about `CN(CC1CC1)[C@H](CNC(=O)NCCc1ccccc1)Cc1ccc(O)cc1` ?
Result string: t

----------
- study.system: μOR (Homo sapiens, UniProt P35372)
- experiment.summary: β-arrestin recruitment at μOR with GRK2 co-expression
- Type: cell-based
- conditions: read-out: Arrestin + GRK2 EC50
Mark 1.0 for EC50 under 100 nM, 0.0 if at or over.

Example cases with answers are listed next.
[
  {
    "compound": "C[C@H](NC(=O)NC[C@H](Cc1ccc(O)cc1)N(C)C)c1ccccc1 [DD 53LS]",
    "assigned.label": 1.0
  },
  {
    "compound": "CN(C)[C@H](CNC(=O)NC(C)(C)Cc1ccccc1)Cc1ccc(O)cc1 [DD 33L]",
    "assigned.label": 0.0
  },
  {
    "compound": "C[C@@H](Cc1csc2ccccc12)NC(=O)NC[C@H](Cc1ccc(O)cc1)N(C)C [DD63L-B]",
    "assigned.label": 1.0
  },
  {
    "compound": "CN(C)[C@H](CNC(=O)NCCc1ccsc1)Cc1ccc(O)cc1",
    "assigned.label": 0.0
  },
  {
    "compound": "CN(C)[C@H](CNC(=S)NCCc1ccsc1)Cc1ccc(O)cc1",
    "assigned.label": 1.0
  }
]

Okay, now this compound:
Query string: is_below(EC50, 100 nM) for `CN(C)[C@H](CNC(=O)NCCc1ccccc1)Cc1ccc(O)cc1` ?
Result string: 0.0
